Kindly state pIC50 for each of the entries shown.
# assayed.system: Steroid 5-α-reductase isolated from liver of Wistar rat (Rattus norvegicus)
# Construct: isolated from liver of Wistar rat by conventional centrifugation
# Sequence (P24008 whole entry): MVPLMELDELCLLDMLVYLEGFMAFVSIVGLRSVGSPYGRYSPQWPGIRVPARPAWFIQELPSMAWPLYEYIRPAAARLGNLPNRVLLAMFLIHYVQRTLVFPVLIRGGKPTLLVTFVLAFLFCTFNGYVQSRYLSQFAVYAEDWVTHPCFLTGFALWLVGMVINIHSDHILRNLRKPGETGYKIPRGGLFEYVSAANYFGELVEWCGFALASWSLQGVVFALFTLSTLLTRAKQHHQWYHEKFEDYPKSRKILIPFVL
# experiment.description: Steroid 5-α-reductase inhibition (testosterone EIA)
# measurement.setup: rat liver enzyme, 1 μM testosterone, 30 minutes
# Excerpt: Steroid 5-α-reductase isolated from liver of Wistar rat by conventional centrifugation was used (Liang T, et. al., Endocrinology. 1985;117(2): 571-9). The reaction was terminated by addition of 1 N HCl and neutrilized by 1 N NaOH. Testosterone was quantitated by using a Testosterone EIA Kit.
Quick note: pIC50 values are minus log10 of concentrations in mol/L.

query: Hi! What's the reported pIC50 for `CCCCC/C=C\C/C=C\C/C=C\CCCCC(=O)O` on Steroid 5-α-reductase isolated from liver of Wistar rat (Rattus norvegicus)?
result: 4.85

query: Reported pIC50 for Steroid 5-α-reductase isolated from liver of Wistar rat (Rattus norvegicus), given CC(C)(C)NC(=O)[C@H]1CC[C@H]2[C@@H]3CC[C@H]4NC(=O)C=C[C@]4(C)[C@H]3CC[C@]12C [Finasteride] ?
result: 7.60
